Where do these numbers come from? They come from ChEMBL document CHEMBL1129258.

# target_or_system: DNA gyrase (Escherichia coli) (UniProt P0AES6+P0AES4)
# experiment_summary: In vitro antibacterial activity against gram-negative organism Klebsiella pneumoniae ATCC 8045
# Format: functional
measured_attribute: MIC (µg/mL)

> print(dat)
                                   compound  measured.attribute  experimental.result
1  CO[C@@H]1CN(c2c(F)cn3c(=O)c(C(=O)O)cc(C4CC4)c3c2C)C[C@H]1N                 MIC                 0.05

[A] Cc1c(N2CCC(N)C2)c(F)cn2c(=O)c(C(=O)O)cc(C3CC3)c12 (centres undefined)
[B] NC1CCN(c2nc3c(-c4c(F)c(F)c(F)c(F)c4F)cc(C(=O)O)c(=O)n3cc2F)C1 (centres undefined)
query: Between A and B , which one has the lower reported MIC value? Answer format: the label of the selected item.
result: A

[1] NC1CCN(c2nc3c(-c4ccc(F)cc4F)cc(C(=O)O)c(=O)n3cc2F)C1 (centres undefined)
[2] CN1CCN(c2nc3c(C4CC4)cc(C(=O)O)c(=O)n3cc2F)CC1
query: So which one has the bigger MIC here, 1 or 2 ? Respond with the label that goes with your answer.
result: 2
(2: 0.1 µg/mL, 1: 0.02 µg/mL)

[I] Cc1c(N2CCC(n3ccnn3)C2)c(F)cn2c(=O)c(C(=O)O)cc(C3CC3)c12 (centres undefined)
[II] Cc1c(N2CC[C@@H](N)C2)c(F)cn2c(=O)c(C(=O)O)cc(C3CC3)c12
[III] C[C@H]1C[C@H](N)CN1c1nc2c(-c3ccc(F)cc3F)cc(C(=O)O)c(=O)n2cc1F
query: Output the entries ranked by MIC from maximum down to minimum. In plain terms: list the labels in the order you were asked to.
result: I, III, II
